- Test protocol: Half life in rat at 1 mg/kg, iv and 2 mg/kg, po
- Format: ADME, organism-based
- Study conditions: in vivo

| Record smiles | half-life |
| --- | --- |
| C[C@H]1C[C@@H](NS(=O)(=O)c2cc(Br)ccc2Br)CN1C#N | 12 min |

* * *

- Study target: Cathepsin B (Homo sapiens, UniProt P07858)
- Test protocol: Inhibition of human recombinant cathepsin B after 1 hr
pIC50: −log10 of the molar value.
Known pIC50 of a selection of compounds
Measurement label: pIC50

| Compound | Study target | Reported relation | Readout value |
| --- | --- | --- | --- |
| COc1ccc(OC)c(S(=O)(=O)N[C@@H]2CCN(C#N)C2)c1 | Cathepsin B (Homo sapiens, UniProt P07858) | = | 4.90 |
| COc1ccc(OC)c(S(=O)(=O)N[C@@H]2C[C@H](C)N(C#N)C2)c1 | Cathepsin B (Homo sapiens, UniProt P07858) | < | 4.60 |
| C[C@H]1C[C@@H](NS(=O)(=O)c2cccc(Br)c2)CN1C#N | Cathepsin B (Homo sapiens, UniProt P07858) | < | 4.60 |
| N#CN1CC[C@@H](NC(=O)Nc2ccccc2)C1 | Cathepsin B (Homo sapiens, UniProt P07858) | = | 5.90 |
| N#CN1CC[C@H](NS(=O)(=O)c2ccccc2)C1 | Cathepsin B (Homo sapiens, UniProt P07858) | = | 5.40 |
| CC(C)(C)OC(=O)N1CC[C@@H](NS(=O)(=O)c2cccc(Br)c2)C1 | Cathepsin B (Homo sapiens, UniProt P07858) | < | 4.60 |
| COc1ccc(OC)c(S(=O)(=O)N[C@@H]2C[C@@H](C)N(C#N)C2)c1 | Cathepsin B (Homo sapiens, UniProt P07858) | < | 4.60 |
| O=CN1CC[C@@H](NS(=O)(=O)c2cccc(Br)c2)C1 | Cathepsin B (Homo sapiens, UniProt P07858) | < | 4.60 |
| N#CN1CC[C@@H](NC(=O)c2ccc(F)cc2)C1 | Cathepsin B (Homo sapiens, UniProt P07858) | = | 5.40 |
| N#CN1CCC(CCc2ccccc2)C1 (stereo unspecified) | Cathepsin B (Homo sapiens, UniProt P07858) | = | 5.30 |
| N#CN1CCCC1 | Cathepsin B (Homo sapiens, UniProt P07858) | < | 4.60 |
